Test system: TK-10 renal
Experiment: NCI tumour cell line growth inhibition, 48 h
Result type: TGI (µM)
One number for each entry, in µM.

Known results for compounds:
CCN(CC)CCNCC(=O)Oc1ccc(/C=C/C(=O)CC(=O)/C=C/c2ccc(OC(=O)CNCCN(CC)CC)c(OC)c2)cc1OC    23.5
CO[C@H]1[C@@H](O)[C@@H](C)O[C@@H](O[C@H]2CC[C@@]3(C)[C@H](CC[C@@H]4[C@@H]3CC[C@]3(C)[C@@H](C5=CC(=O)OC5)[C@@H](OC(C)=O)C[C@]43O)C2)[C@@H]1O    0.052
CC(=O)OCC1OC([S-])C(OC(C)=O)C(OC(C)=O)C1OC(C)=O.CC[PH+](CC)CC.CC[PH+](CC)CC.[Au].[Au] (stereo not given)    1.69
CCN(CC)CC(C)(C)C(=O)/C=C/c1ccc(Cl)c(Cl)c1    3.04

Query :: Specify measured TGI for `OCCCCC#Cc1ccccc1C#Cc1cccc(O)c1` .
Result :: 38.2
